assayName: Oral bioavailability in Sprague-Dawley rat at 1 mg/kg
Format: ADME, organism-based
testContext: in vivo
resultType: bioavailability (%)
Answers are plain numbers, in %.

In: Quick one: bioavailability for N#Cc1ccccc1-c1cc(-c2ccccn2)cn(-c2ccccc2)c1=O ?
Out: 64.3

###

assayName: Half life in Sprague-Dawley rat at 1 mg/kg, iv
Type: ADME, organism-based
Set-up: dose 1 mg/kg, route intravenous
testContext: in vivo
resultType: half-life (min)
One number for each entry, in min.

In: Tell me the measured half-life of N#Cc1ccccc1-c1cc(-c2ccccn2)cn(-c2ccccc2)c1=O , please.
Out: 142

###

Test system: Mus musculus
assayName: Anticonvulsant activity in po dosed ddY mouse AMPA-induced seizure model
Format: functional
testContext: read-out: MED
Would you mind telling me the reported minimal effective dose of each entry?
Answers are plain numbers, in mg/kg.

For each of the items listed, what is its minimal effective dose?
1. O=c1c(-c2cccnc2F)cc(-c2ccccn2)cn1-c1cccnc1
2. N#Cc1ccccc1-c1cc(-c2ccccn2)cn(-c2cccnc2)c1=O
3. N#Cc1ncccc1-c1cc(-c2ccccn2)cn(-c2ccccc2)c1=O

Out:
[10, 10, 5]

Origin of measurements: ChEMBL document CHEMBL2203113
